Give measured Percent Control for each item. Keep answers brief.
# Test system: EPHA4
# measurement_conditions: Compound Concentration (nM):1000;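 also: KINOMEscan scanMAX binding as percent activity remaining versus control; lower means stronger binding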
Please state the figure in %; there is no need to write the unit.

Value lookup for Percent Control; key = COc1cccc(-c2c[nH]c3c(N/N=C/c4ccncc4)ncnc23)c1 [GW814408X]
100

Consider the compound COc1ccccc1-c1cc(/C=C2\C(=O)Nc3ncc(Br)cc32)cc(Br)c1O [GW442130X] and give its measured Percent Control.
100

Please report the recorded Percent Control for `NS(=O)(=O)c1ccc(N/N=C2\C(=O)Nc3ccc(-c4cnco4)cc32)cc1` .
88

Can you share its Percent Control? I mean this compound: COc1ccc(COc2ccc(Cc3cnc(N)nc3N)cc2OC)cc1 [GW632580X]
99

Requested field: Percent Control. Item: NS(=O)(=O)c1ccc(N/N=C2\C(=O)Nc3ccc(C(=O)NCCc4c[nH]cn4)cc32)cc1 [GW300660X]
89

Which Percent Control is reported for this compound? O=C1Nc2ccc(C(=O)c3ccco3)cc2C1=Cc1cc(Cl)c(O)c(Cl)c1 [GW406108X]
89

====

# Tested on: BRK
# Construct: gene PTK6
# measurement_conditions: Compound Concentration (nM):1000
measurement_label: Percent Control (%)
// return numeric value only (unit: %, not printed)

Name the reported Percent Control value associated with the compound COc1cc2ncn(-c3cc(O[C@H](C)c4ccccc4Cl)c(C(N)=O)s3)c2cc1OC [GSK237701A]
100

Could you tell me which Percent Control is on file for Cl.c1ccc(Cc2nc3ccc(Nc4ncnc5ccccc45)cc3[nH]2)cc1 [GR269666A] ?
100

Item COc1cc(N2CCN(C(C)C)CC2)ccc1Nc1nc(Nc2ccc(F)cc2C(=O)NC[C@@H](O)CO)c2cc[nH]c2n1 [GSK1392956A] has what recorded Percent Control?
100

Look up Percent Control: COc1ccccc1-c1cc(/C=C2\C(=O)Nc3ncc(Br)cc32)cc(Br)c1O [GW442130X]
100

What value of Percent Control has been reported for the following compound? C/C(Nc1ccc(S(N)(=O)=O)cc1)=C1/C(=O)Nc2ccccc21 [GW335962X]
95

Percent Control for `NS(=O)(=O)c1ccc(N/N=C2\C(=O)Nc3ccc(-c4cnco4)cc32)cc1` ?
82

// lookup Percent Control for Cl.O=S1CCN(Cc2ccc(-c3ccc4ncnc(Nc5ccc(OCc6ccccc6)c(F)c5)c4c3)o2)CC1 [GW576924A]
100

For the compound Cl.O=C(Nc1ccc(Oc2ccc3[nH]c(NC(=O)c4ccco4)nc3c2)cc1)Nc1cc(C(F)(F)F)ccc1F [GW683134A] , what Percent Control is on record?
100

Name the reported Percent Control value associated with the compound NS(=O)(=O)c1ccc(N/N=C2\C(=O)Nc3ccc(C(=O)NCc4ccncc4)cc32)cc1 [GW300657X]
100

Look up Percent Control: `COc1cc(C)c(N(C)C(=O)CN(C)C)cc1Nc1nc(Nc2cccc(F)c2C(N)=O)c2cc[nH]c2n1`
100

Would you kindly share the measured Percent Control for Cc1cc(O)cc(C)c1/C=C/c1cncc(C(N)=O)c1 [GW435821X] ?
58

Consider the compound COc1cccc(-n2ncc3c(N/N=C/c4ccncc4)ncnc32)c1 [GW784752X] and give its measured Percent Control.
100

Request the reported Percent Control associated with COc1ccc2c(-c3ccnc(Nc4cccc(OC(F)(F)F)c4)n3)cnn2n1 [GW810372X]
100

Fill blank: measured Percent Control of the compound NS(=O)(=O)c1ccc(N/N=C2\C(=O)Nc3ccc(C(=O)NCCc4c[nH]cn4)cc32)cc1 [GW300660X] is ____.
100

What value of Percent Control has been reported for the following compound? `CCc1ccc(Oc2nccc(-c3c(-c4ccc(F)cc4)ncn3C3CCNCC3)n2)cc1`
94

Entry NS(=O)(=O)c1ccc(N/N=C2\C(=O)Nc3ccc(Cl)cc32)cc1 [GW280670X] : reported Percent Control = ?
100

Which Percent Control reading was recorded for the compound `O=C(Nc1n[nH]c2nc(-c3ccc(O)cc3)c(Br)cc12)C1CC1` ?
100
